Just for reference, ChEMBL document CHEMBL1821640 is where these values come from.

assay: Selectivity index, ratio of MDL50 for human HepG2 cells to MIC for Mycobacterium tuberculosis H37Rv ATCC 27294; assay type: functional
READOUT_TYPE: Ratio

O=Cc1cn(-c2ccc(Cl)cc2)nn1
6
O=C(N/N=C/c1cn(-c2ccccc2)nn1)c1ccncc1
>400
Cc1ccc(-n2cc(/C=N/NC(=O)c3ccncc3)nn2)cc1
94

Given the entry O=C(N/N=C/c1cn(-c2cccc(Cl)c2)nn1)c1ccncc1 , report its measured Ratio. >1612

GET /values?readout=Ratio&item= O=C(N/N=C/c1cn(-c2ccc(F)cc2)nn1)c1ccncc1 >800

Would you mind telling me what Ratio value was observed for O=C(N/N=C/c1cn(-c2ccc(Cl)cc2)nn1)c1ccncc1 ? >1612

* * *

The following molecules are shown together with reported CC50 at 24 h values.
assay: Cytotoxicity against human HepG2 cells after 24 hrs by MTT assay; format: cell-based; conditions: read-out: MLD50

Solved entries:
O=C(N/N=C/c1cn(-c2ccc(F)cc2)nn1)c1ccncc1
> 1000 µg/mL
C=Cc1cn(-c2cc(Cl)ccc2Cl)nn1
> 1000 µg/mL
Cc1ccccc1-n1cc(/C=N/NC(=O)c2ccncc2)nn1
314 µg/mL
O=C(N/N=C/c1cn(-c2ccccc2)nn1)c1ccncc1
> 1000 µg/mL
O=Cc1cn(-c2ccc(Cl)cc2)nn1
71 µg/mL

Please report the recorded CC50 at 24 h for O=C(N/N=C/c1cn(-c2ccc([N+](=O)[O-])cc2)nn1)c1ccncc1 . > 1000 µg/mL

Could you share which CC50 at 24 h value was measured for O=C(N/N=C/c1cn(-c2ccc(Cl)c(Cl)c2)nn1)c1ccncc1 ? > 1000 µg/mL

# lookup: CC50 at 24 h of O=C(N/N=C/c1cn(-c2ccc(Cl)cc2)nn1)c1ccncc1 > 1000 µg/mL

Would you mind telling me what CC50 at 24 h value was observed for O=C(N/N=C/c1cn(-c2cccc(Cl)c2)nn1)c1ccncc1 ? > 1000 µg/mL

Quick one: CC50 at 24 h of Cc1cccc(-n2cc(/C=N/NC(=O)c3ccncc3)nn2)c1 ? 124 µg/mL

Which CC50 at 24 h value is on record for COc1ccccc1-n1cc(/C=N/NC(=O)c2ccncc2)nn1 ? > 1000 µg/mL

Would you kindly share the measured CC50 at 24 h for O=C(N/N=C/c1cn(-c2cc(Cl)ccc2Cl)nn1)c1ccncc1 ? > 1000 µg/mL

I'd like to know its CC50 at 24 h. The molecule in question is Cc1ccc(-n2cc(/C=N/NC(=O)c3ccncc3)nn2)cc1 118 µg/mL

Returns the measured CC50 at 24 h for the input molecule. Input: O=C(N/N=C/c1cn(-c2ccccc2Cl)nn1)c1ccncc1 263 µg/mL

Please look up its CC50 at 24 h: COc1ccc(-n2cc(/C=N/NC(=O)c3ccncc3)nn2)cc1 > 1000 µg/mL

* * *

experiment: Selectivity index, ratio of MDL50 for human HepG2 cells to MIC for Mycobacterium tuberculosis H37Rv ATCC 27294; format: functional
Some molecules, each annotated with its measured Ratio.
Just the number, please, no unit attached.

Quick one: Ratio for O=C(N/N=C/c1cn(-c2ccccc2Cl)nn1)c1ccncc1 ? 210

Look up Ratio for this molecule: Cc1cccc(-n2cc(/C=N/NC(=O)c3ccncc3)nn2)c1 200
